The entries below are paired with their reported GM (Gr.− strains): geometric mean of MIC values from all Gram-negative strains.
- Tested on: all Gram-negative strains
- measurement-notes: Mean MIC and therapeutic index, Gram-negative strains
- Assay type: cell-based
- measurement-context: 7 Gram-negative strains of Table 3
Where a SMILES comes first, the peptide text is derived from it.
Dear colleague, please return just the value in µg/mL, with no unit written.

{"compound": "CC[C@H](C)[C@H](NC(=O)[C@H](CCCNC(=N)N)NC(=O)[C@H](CCCCN)NC(=O)[C@H](C)NC(=O)[C@@H](NC(=O)[C@@H](N)CCCCN)[C@@H](C)CC)C(=O)N[C@@H](Cc1c[nH]c2ccccc12)C(=O)N[C@@H](CCCCN)C(=O)N[C@H](C(=O)N[C@@H](CC(C)C)C(=O)N[C@@H](CCCNC(=N)N)C(=O)N[C@@H](CCCNC(=N)N)C(=O)N[C@@H](CCCNC(=N)N)C(=O)N[C@@H](CC(C)C)C(=O)N[C@@H](Cc1ccccc1)C(N)=O)[C@@H](C)CC [PA-15] (H-KIAKRIWKILRRRLF-NH2; N-terminus assumed)", "observed-measurement": 7.54}

// next entry
GM (Gr.− strains): geometric mean of MIC values from all Gram-negative strains reading for CC[C@H](C)[C@H](NC(=O)[C@H](CCCNC(=N)N)NC(=O)[C@H](CCCCN)NC(=O)[C@H](C)NC(=O)[C@@H](NC(=O)[C@@H](N)CCCCN)[C@@H](C)CC)C(=O)N[C@@H](Cc1c[nH]c2ccccc12)C(=O)N[C@@H](CCCCN)C(=O)N[C@H](C(=O)N[C@@H](CC(C)C)C(=O)N[C@@H](CCCNC(=N)N)C(=O)N[C@@H](CCCNC(=N)N)C(N)=O)[C@@H](C)CC [P7] (H-KIAKRIWKILRR-NH2; N-terminus assumed) : 28.46

====

- Tested on: Enterococcus faecalis ATCC 29212
- measurement-context: ATCC 29212, 24 h
Where a SMILES comes first, the peptide text is derived from it.
metric: MIC (µg/mL)
Dear colleague, please return just the value in µg/mL, with no unit written.

MIC reading for CC[C@H](C)[C@H](NC(=O)[C@H](CCCNC(=N)N)NC(=O)[C@H](CCCCN)NC(=O)[C@H](C)NC(=O)[C@@H](NC(=O)[C@@H](N)CCCCN)[C@@H](C)CC)C(=O)N[C@@H](Cc1c[nH]c2ccccc12)C(=O)N[C@@H](CCCCN)C(=O)N[C@H](C(=O)N[C@@H](CC(C)C)C(=O)N[C@@H](CCCNC(=N)N)C(=O)N[C@@H](CCCNC(=N)N)C(=O)N[C@@H](CCCNC(=N)N)C(=O)N[C@@H](CC(C)C)C(=O)N[C@@H](Cc1ccccc1)C(N)=O)[C@@H](C)CC [PA-15] (H-KIAKRIWKILRRRLF-NH2; N-terminus assumed) : 31.25

====

- System: Bacillus cereus ATCC 11778
- measurement-context: ATCC 11778, 24 h
Where a SMILES comes first, the peptide text is derived from it.
metric: MIC

{"compound": "CC[C@H](C)[C@H](NC(=O)[C@H](CCCNC(=N)N)NC(=O)[C@H](CCCCN)NC(=O)[C@H](CCCCN)NC(=O)[C@@H](NC(=O)[C@H](CCCCN)NC(=O)[C@H](CCC(=O)O)NC(=O)[C@H](CCCCN)NC(=O)[C@@H](N)CCCNC(=N)N)[C@@H](C)CC)C(=O)NCC(=O)N[C@@H](CCCCN)C(=O)N[C@H](C(=O)N[C@@H](CC(=O)O)C(=O)N[C@@H](CCCNC(=N)N)C(=O)N[C@@H](CC(C)C)C(N)=O)[C@@H](C)CC [P0] (H-RKEKIKKRIGKIDRL-NH2; N-terminus assumed)", "metric": "MIC", "observed-measurement": ">250 µg/mL"}

MIC reading for CC[C@H](C)[C@H](NC(=O)[C@H](CC(=O)O)NC(=O)[C@H](Cc1ccccc1)NC(=O)[C@H](CC(C)C)NC(=O)CN)C(=O)N[C@H](C(=O)N[C@@H](CCCCN)C(=O)N[C@@H](CCCCN)C(=O)N[C@H](C(=O)N[C@@H](C)C(=O)NCC(N)=O)C(C)C)C(C)C [A0] (H-GLFDIVKKVAG-NH2; N-terminus assumed) : >250 µg/mL

MIC reading for CC[C@H](C)[C@H](NC(=O)[C@H](CCCNC(=N)N)NC(=O)[C@H](CCCCN)NC(=O)[C@H](C)NC(=O)[C@@H](NC(=O)[C@@H](N)CCCCN)[C@@H](C)CC)C(=O)N[C@@H](Cc1c[nH]c2ccccc12)C(=O)N[C@@H](CCCCN)C(=O)N[C@H](C(=O)N[C@@H](CC(C)C)C(=O)N[C@@H](CCCNC(=N)N)C(=O)N[C@@H](CCCNC(=N)N)C(=O)N[C@@H](CCCNC(=N)N)C(N)=O)[C@@H](C)CC [PA-13] (H-KIAKRIWKILRRR-NH2; N-terminus assumed) : 15.63 µg/mL

MIC reading for CC(C)C[C@H](NC(=O)[C@@H](N)CCCNC(=N)N)C(=O)N[C@@H](Cc1ccccc1)C(=O)N[C@@H](CCCNC(=N)N)C(=O)N[C@@H](CCCNC(=N)N)C(=O)N[C@H](C(=O)N[C@@H](CCCCN)C(=O)N[C@@H](CCCCN)C(=O)N[C@H](C(=O)N[C@@H](C)C(=O)NCC(N)=O)C(C)C)C(C)C [A3] (H-RLFRRVKKVAG-NH2; N-terminus assumed) : >250 µg/mL

meta.source: paper PMC7272617
